details: 298.15 K; 101.33 kPa; Liquid; Pycnometric method
Rule: mass density below 1000 kg/m3 gives 1. Equal to or above 1000 kg/m3 gives -1.

Just wondering, is mass density of [Hg] below 1000 kg/m3?
-1

Just wondering, is mass density of COC(=O)OC [dimethyl carbonate] below 1000 kg/m3?
-1

Just wondering, is mass density of CCCCOC(=O)c1ccccc1C(=O)OCCCC [dibutyl phthalate] below 1000 kg/m3?
-1

Just wondering, is mass density of C[S+](C)[O-] [dimethyl sulfoxide] below 1000 kg/m3?
-1

Just wondering, is mass density of CC#N below 1000 kg/m3?
1
